tested on: HL-60; experiment: Anti-proliferative activity, CTG assay, HL-60 cells; format: cell-based; settings: 72 h
recorded_endpoint: IC50 (µM)
Supply the numeric figure in µM, leaving out any unit text.

**Q:** Return reported IC50 for target or system HL-60, item COC(=O)C1CCCN1S(=O)(=O)c1ccc(-c2ccc(NC(=O)CN)cc2)cc1 (stereo not shown) [13a] .
**A:** 7.23

----------
tested on: HL-60; assay: Anti-proliferative activity, CTG assay, HL-60 cells; format: cell-based; settings: Homo sapiens, HL-60, 72 h, 50 μM, read-out: Inhibition rate HL-60 (%)
recorded_endpoint: inhibition at 50 µM (%)
Supply the numeric figure in %, leaving out any unit text.

**Q:** Quickly give me recorded inhibition at 50 µM for COC(=O)[C@H]1CCCN1S(=O)(=O)c1ccc(-c2ccc(NC(=O)[C@@H](C)N)nc2)cc1 [7e]
**A:** 17.8

**Q:** Quickly give me recorded inhibition at 50 µM for COC(=O)C1CCCN1S(=O)(=O)c1ccc(-c2ccc(NC(=O)CN)cc2)cc1 (centres unmarked) [13a]
**A:** 99.2

**Q:** Quickly give me recorded inhibition at 50 µM for COC(=O)[C@H]1CCCN1S(=O)(=O)c1ccc(-c2ccc(NC(=O)[C@@H](C)N)cc2)cc1 [7b]
**A:** 46.9

**Q:** Quickly give me recorded inhibition at 50 µM for COC(=O)[C@@H]1CCCN1S(=O)(=O)c1ccc(-c2ccc(NC(=O)CN)nc2)cc1 [13d]
**A:** 99.9

**Q:** Quickly give me recorded inhibition at 50 µM for COC(=O)[C@H]1CCCN1S(=O)(=O)c1ccc(-c2ccc(NC(=O)[C@H](C)N)nc2)cc1 [7f]
**A:** 28.2

**Q:** Quickly give me recorded inhibition at 50 µM for COC(=O)[C@H]1CCCN1S(=O)(=O)c1ccc(-c2ccc(NC(=O)CN)nc2)cc1 [7d]
**A:** 16.9

**Q:** Quickly give me recorded inhibition at 50 µM for COC(=O)[C@@H]1CCCN1S(=O)(=O)c1ccc(-c2ccc(NC(=O)[C@@H](C)N)nc2)cc1 [13e]
**A:** 100

**Q:** Quickly give me recorded inhibition at 50 µM for COC(=O)[C@@H]1CCCN1S(=O)(=O)c1ccc(-c2ccc(NC(=O)[C@H](C)N)nc2)cc1 [13f]
**A:** 99.8

**Q:** Quickly give me recorded inhibition at 50 µM for COC(=O)[C@H]1CCCN1S(=O)(=O)c1ccc(-c2ccc(NC(=O)[C@H](C)N)cc2)cc1 [7c]
**A:** 49.6

**Q:** Quickly give me recorded inhibition at 50 µM for COC(=O)[C@@H]1CCCN1S(=O)(=O)c1ccc(-c2ccc(NC(=O)[C@H](C)N)cc2)cc1 [13c]
**A:** 96.5

**Q:** Quickly give me recorded inhibition at 50 µM for COC(=O)[C@@H]1CCCN1S(=O)(=O)c1ccc(-c2ccc(NC(=O)[C@@H](C)N)cc2)cc1 [13b]
**A:** 100

----------
test: Cytotoxicity toward human normal liver cells HL-7702, CTG assay; format: cell-based; conditions: human, HL-7702 normal liver cells, read-out: 50% cytotoxic concentration (CC50) HL-7702
recorded_endpoint: CC50 at 72 h (µM)
Supply the numeric figure in µM, leaving out any unit text.

**Q:** Quickly give me recorded CC50 at 72 h for COC(=O)[C@@H]1CCCN1S(=O)(=O)c1ccc(-c2ccc(NC(=O)[C@@H](C)N)cc2)cc1 [13b]
**A:** 89.1

**Q:** Quickly give me recorded CC50 at 72 h for COC(=O)[C@@H]1CCCN1S(=O)(=O)c1ccc(-c2ccc(NC(=O)[C@H](C)N)cc2)cc1 [13c]
**A:** 43.7

**Q:** Quickly give me recorded CC50 at 72 h for COC(=O)C1CCCN1S(=O)(=O)c1ccc(-c2ccc(NC(=O)CN)cc2)cc1 (stereo not shown) [7a]
**A:** 21.1

**Q:** Quickly give me recorded CC50 at 72 h for O=C(CCCCCCC(=O)Nc1ccccc1)NO [SAHA, vorinostat, reference compound]
**A:** 2.03

----------
recorded_endpoint: melting point

**Q:** Quickly give me recorded melting point for "COC(=O)[C@H]1CCCN1S(=O)(=O)c1ccc(-c2ccc(NC(=O)[C@@H](C)N)nc2)cc1"
**A:** 146 to 148.4 °C

**Q:** Quickly give me recorded melting point for "COC(=O)[C@H]1CCCN1S(=O)(=O)c1ccc(-c2ccc(NC(=O)[C@H](C)N)nc2)cc1"
**A:** 146.2 to 148.9 °C

**Q:** Quickly give me recorded melting point for "COC(=O)[C@H]1CCCN1S(=O)(=O)c1ccc(-c2ccc(NC(=O)[C@H](C)N)cc2)cc1"
**A:** 155.1 to 158.3 °C

----------
tested on: RPMI 8226; test: Anti-proliferative activity, CTG assay, RPMI 8226 cells; format: cell-based; conditions: Homo sapiens, RPMI-8226, 72 h, 50 μM, read-out: Inhibition rate RPMI 8226 (%)
What inhibition at 50 µM was measured for each of the following?
Supply the numeric figure in %, leaving out any unit text.

**Q:** Quickly give me recorded inhibition at 50 µM for "COC(=O)[C@H]1CCCN1S(=O)(=O)c1ccc(-c2ccc(NC(=O)[C@H](C)N)nc2)cc1"
**A:** 29.4

**Q:** Quickly give me recorded inhibition at 50 µM for COC(=O)C1CCCN1S(=O)(=O)c1ccc(-c2ccc(NC(=O)CN)cc2)cc1 (stereo not drawn) [13a]
**A:** 99.9

**Q:** Quickly give me recorded inhibition at 50 µM for COC(=O)[C@@H]1CCCN1S(=O)(=O)c1ccc(-c2ccc(NC(=O)[C@H](C)N)cc2)cc1 [13c]
**A:** 82.9

----------
System: RPMI 8226
Assay: Anti-proliferative activity, CTG assay, RPMI 8226 cells
Format: cell-based
Conditions: Homo sapiens, RPMI-8226, 72 h, 50 μM, read-out: Inhibition rate RPMI 8226 (%)
Description: RPMI 8226 and HL-7702 cells were cultured in RPMI-1640 medium, Hela cells were cultured in MEM medium, and HL-60 cells were cultured in IMDM medium with 1% penicillin–streptomycin solution and 10% FBS, respectively. The above cells were cultured at 37 °C and 5% CO2. […] The chemiluminescence signal was read by an envision multifunctional enzyme marker. The inhibition ratios and IC50 values were calculated using Prism Graph Pad software.
What inhibition at 50 µM was measured for each of the following?
Supply the numeric figure in %, leaving out any unit text.

**Q:** Quickly give me recorded inhibition at 50 µM for "COC(=O)[C@H]1CCCN1S(=O)(=O)c1ccc(-c2ccc(NC(=O)CN)nc2)cc1"
**A:** 89.7

**Q:** Quickly give me recorded inhibition at 50 µM for COC(=O)[C@@H]1CCCN1S(=O)(=O)c1ccc(-c2ccc(NC(=O)[C@@H](C)N)cc2)cc1 [13b]
**A:** 97.5

**Q:** Quickly give me recorded inhibition at 50 µM for COC(=O)[C@@H]1CCCN1S(=O)(=O)c1ccc(-c2ccc(NC(=O)[C@H](C)N)nc2)cc1 [13f]
**A:** 89.2

**Q:** Quickly give me recorded inhibition at 50 µM for COC(=O)[C@@H]1CCCN1S(=O)(=O)c1ccc(-c2ccc(NC(=O)[C@@H](C)N)nc2)cc1 [13e]
**A:** 94.9

----------
What melting point was measured for each of the following?

**Q:** Quickly give me recorded melting point for COC(=O)[C@@H]1CCCN1S(=O)(=O)c1ccc(-c2ccc(NC(=O)[C@@H](C)N)nc2)cc1 [13e]
**A:** 146.2 to 148.9 °C

**Q:** Quickly give me recorded melting point for COC(=O)[C@@H]1CCCN1S(=O)(=O)c1ccc(-c2ccc(NC(=O)[C@H](C)N)nc2)cc1 [13f]
**A:** 146.8 to 149.1 °C

**Q:** Quickly give me recorded melting point for COC(=O)C1CCCN1S(=O)(=O)c1ccc(-c2ccc(NC(=O)CN)cc2)cc1 (centres unmarked)
**A:** 163.4 to 165.3 °C

**Q:** Quickly give me recorded melting point for "COC(=O)[C@H]1CCCN1S(=O)(=O)c1ccc(-c2ccc(NC(=O)[C@@H](C)N)cc2)cc1"
**A:** 157.4 to 159.1 °C

**Q:** Quickly give me recorded melting point for COC(=O)[C@@H]1CCCN1S(=O)(=O)c1ccc(-c2ccc(NC(=O)[C@H](C)N)cc2)cc1 [13c]
**A:** 155.3 to 157.6 °C

----------
Tested on: Hela
Assay: Anti-proliferative activity, CTG assay, Hela cells
Format: cell-based
Settings: Homo sapiens, HeLa, 72 h, 50 μM, read-out: Inhibition rate Hela (%)
Protocol: RPMI 8226 and HL-7702 cells were cultured in RPMI-1640 medium, Hela cells were cultured in MEM medium, and HL-60 cells were cultured in IMDM medium with 1% penicillin–streptomycin solution and 10% FBS, respectively. The above cells were cultured at 37 °C and 5% CO2. […] The chemiluminescence signal was read by an envision multifunctional enzyme marker. The inhibition ratios and IC50 values were calculated using Prism Graph Pad software.
recorded_endpoint: inhibition at 50 µM (%)
Supply the numeric figure in %, leaving out any unit text.

**Q:** Quickly give me recorded inhibition at 50 µM for "COC(=O)[C@H]1CCCN1S(=O)(=O)c1ccc(-c2ccc(NC(=O)[C@H](C)N)cc2)cc1"
**A:** 8.63

**Q:** Quickly give me recorded inhibition at 50 µM for COC(=O)[C@@H]1CCCN1S(=O)(=O)c1ccc(-c2ccc(NC(=O)[C@H](C)N)cc2)cc1 [13c]
**A:** 72.3

**Q:** Quickly give me recorded inhibition at 50 µM for "COC(=O)[C@H]1CCCN1S(=O)(=O)c1ccc(-c2ccc(NC(=O)[C@H](C)N)nc2)cc1"
**A:** 21.6

**Q:** Quickly give me recorded inhibition at 50 µM for "COC(=O)[C@H]1CCCN1S(=O)(=O)c1ccc(-c2ccc(NC(=O)[C@@H](C)N)nc2)cc1"
**A:** 7.27

**Q:** Quickly give me recorded inhibition at 50 µM for COC(=O)[C@@H]1CCCN1S(=O)(=O)c1ccc(-c2ccc(NC(=O)[C@@H](C)N)cc2)cc1 [13b]
**A:** 62.3
